Molecular target: T1, human GIP receptor (human) (UniProt P48546)
T1 sequence (looked up): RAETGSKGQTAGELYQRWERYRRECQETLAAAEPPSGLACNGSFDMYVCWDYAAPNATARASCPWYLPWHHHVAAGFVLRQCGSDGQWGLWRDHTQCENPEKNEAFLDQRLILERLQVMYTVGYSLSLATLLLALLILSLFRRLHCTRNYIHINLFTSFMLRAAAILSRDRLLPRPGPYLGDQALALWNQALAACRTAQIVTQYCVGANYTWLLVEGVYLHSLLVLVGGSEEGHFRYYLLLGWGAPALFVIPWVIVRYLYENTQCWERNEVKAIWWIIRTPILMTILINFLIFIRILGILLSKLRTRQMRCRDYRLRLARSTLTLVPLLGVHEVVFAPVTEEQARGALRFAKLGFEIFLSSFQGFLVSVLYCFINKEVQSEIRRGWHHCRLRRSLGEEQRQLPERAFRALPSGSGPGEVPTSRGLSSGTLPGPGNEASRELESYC
Assay: cell-based or functional assay
metric: cAMP Rel EC50, nM (in the presence of 1% HSA) (nM)
Express it in nM; write the number only.

# binder, unitLabel, experimentalResult
data = [
    ("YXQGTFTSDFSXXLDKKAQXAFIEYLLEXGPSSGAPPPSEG (synthetic construct; SITE 2: note = 2-Aminoisobutyric Acid; SITE 12: note = L-ornithine; SITE 13: note = alpha-methyl-leucine; SITE 17: note = Lysine is chemically modified through conjugation of the epsilon-amino group of the Lysine side chain with (2-[2-(2-Amino-ethoxy)-ethoxy]-acetyl)2-(gamma-Glu)) [Example 71]", "nM", 48.1),
    ("YXQGTFTSDFSKXLDKKAQXAFIEYLLEGGPSSGAPPPXEG (synthetic construct; SITE 2: note = 2-Aminoisobutyric Acid; SITE 13: note = alpha-methyl-leucine; SITE 17: note = Lysine is chemically modified through conjugation of the epsilon-amino group of the Lysine side chain with (2-[2-(2-Amino-ethoxy)-ethoxy]-acetyl)-(gamma-Glu)-CO-(CH2) 18-CO2H; SITE 20: n) [Example 52]", "nM", 111),
]

Would you kindly look at the next entry?
Item under review: YXQGTFTSDFSKXLDKKAQXAFIEYLLEGGESSGAPPPSGS (synthetic construct; SITE 2: note = 2-Aminoisobutyric Acid; SITE 13: note = alpha-methyl-leucine; SITE 17: note = Lysine is chemically modified through conjugation of the epsilon-amino group of the Lysine side chain with (2-[2-(2-Amino-ethoxy)-ethoxy]-acetyl)-(gamma-Glu)-CO-(CH2) 16-CO2H; SITE 20: n) [Example 146] . Reported cAMP Rel EC50, nM (in the presence of 1% HSA)?
74.6
